Could you please report measured EC50 for the items listed next?
- System: Hepatitis C virus
- measurement description: Antiviral activity against Hepatitis C virus subtype 1b expressing NS3 R155I mutant infected in HuH7 cells after 48 hrs by luciferase reporter assay
- Type: functional, organism-based, Hepacivirus hominis
- condition info: genotype 1b, Huh-7, 48 h
Give bare numbers, in nM.

Worked set:
compound	value type	result units	reported value
CC(C)(C)NC(=O)N[C@H](C(=O)N1C[C@H]2[C@@H]([C@H]1C(=O)NC(CC1CCC1)C(=O)C(N)=O)C2(C)C)C(C)(C)C (stereo partly drawn) [BOCEPREVIR]	EC50	nM	5340
COc1ccc2c(O[C@@H]3C[C@H]4C(=O)N[C@]5(C(=O)O)C[C@H]5/C=C\CCCCC[C@H](NC(=O)OC5CCCC5)C(=O)N4C3)cc(-c3csc(NC(C)C)n3)nc2c1 [CILUPREVIR]	EC50	nM	29

# input for lookup
## Task Return the recorded EC50 value; entry: COc1ccc2c(O[C@@H]3C[C@H]4C(=O)N[C@]5(C(=O)NS(=O)(=O)C6CC6)C[C@H]5/C=C\CCCCN(C)C(=O)[C@@H]4C3)cc(-c3nc(C(C)C)cs3)nc2c1C [SIMEPREVIR]
## Result 6.6

---

- Test system: Hepatitis C virus
- measurement description: Ratio of EC50 for Hepatitis C virus subtype 1b expressing NS3 R109K mutant to EC50 for Hepatitis C virus subtype 1b expressing WT NS3 infected in HuH7 cells after 48 hrs by luciferase reporter assay
- Format: functional, Hepacivirus hominis, genotype 1b, Huh-7
value type: Ratio EC50

molecule	tested target	Ratio EC50
COc1ccc2c(O[C@@H]3C[C@H]4C(=O)N[C@]5(C(=O)O)C[C@H]5/C=C\CCCCC[C@H](NC(=O)OC5CCCC5)C(=O)N4C3)cc(-c3csc(NC(C)C)n3)nc2c1	Hepatitis C virus	0.7

Would you mind listing Ratio EC50 for each of the following molecules?
1. COc1ccc2c(O[C@@H]3C[C@H]4C(=O)N[C@]5(C(=O)NS(=O)(=O)C6CC6)C[C@H]5/C=C\CCCCN(C)C(=O)[C@@H]4C3)cc(-c3nc(C(C)C)cs3)nc2c1C
2. CC(C)(C)NC(=O)N[C@H](C(=O)N1C[C@H]2[C@@H]([C@H]1C(=O)NC(CC1CCC1)C(=O)C(N)=O)C2(C)C)C(C)(C)C (some centres undefined)
3. CCC[C@H](NC(=O)[C@@H]1[C@H]2CCC[C@H]2CN1C(=O)[C@@H](NC(=O)[C@@H](NC(=O)c1cnccn1)C1CCCCC1)C(C)(C)C)C(=O)C(=O)NC1CC1

## Result
1. 0.7
2. 1
3. 0.8

---

- Test system: Hepatitis C virus
- measurement description: Antiviral activity against Hepatitis C virus subtype 1b expressing NS3 V36A mutant infected in HuH7 cells after 48 hrs by luciferase reporter assay
- Format: functional, organism-based, Hepacivirus hominis
- condition info: genotype 1b, Huh-7, 48 h
Could you please report measured EC50 for the items listed next?
Answers are plain numbers, in nM.

molecule	value type	reported value
COc1ccc2c(O[C@@H]3C[C@H]4C(=O)N[C@]5(C(=O)NS(=O)(=O)C6CC6)C[C@H]5/C=C\CCCCN(C)C(=O)[C@@H]4C3)cc(-c3nc(C(C)C)cs3)nc2c1C [SIMEPREVIR]	EC50	34
COc1ccc2c(O[C@@H]3C[C@H]4C(=O)N[C@]5(C(=O)O)C[C@H]5/C=C\CCCCC[C@H](NC(=O)OC5CCCC5)C(=O)N4C3)cc(-c3csc(NC(C)C)n3)nc2c1 [CILUPREVIR]	EC50	1

# input for lookup
## Task Return the recorded EC50 value; entry: CC(C)(C)NC(=O)N[C@H](C(=O)N1C[C@H]2[C@@H]([C@H]1C(=O)NC(CC1CCC1)C(=O)C(N)=O)C2(C)C)C(C)(C)C (stereo partly drawn) [BOCEPREVIR]
## Result 1450
